Entries and their cytotoxicity at 10 µM
# assay.summary: Toxicity liver stage against HepG2, at 10uM
# Format: cell-based
# Design: test concentration 10 uM, cell line HepG2-A16-CD81EGFP
# condition.notes: human, HepG2-A16-CD81EGFP cells; read-out: INHIBITION

>  <molecule>
NC(=O)c1cnc(NCC(=O)NCc2ccco2)c(Cl)c1

>  <unit>
%

>  <cytotoxicity at 10 µM>
3.97

$$$$
>  <molecule>
CC(Cn1cccn1)NC(=O)Cc1csc(C(C)C)n1 (configuration not stated)

>  <unit>
%

>  <cytotoxicity at 10 µM>
-8.57

$$$$
>  <molecule>
O=C(CCNS(=O)(=O)c1ccc(F)cc1)NCc1ccoc1

>  <unit>
%

>  <cytotoxicity at 10 µM>
-6.08

$$$$
>  <molecule>
Cc1ccccc1NC(=O)c1cncc(C2CCNCC2)n1

>  <unit>
%

>  <cytotoxicity at 10 µM>
1.54

$$$$
>  <molecule>
O=C(Nc1ccccc1)C1CCCN(C(=O)Cn2cncn2)C1 (configuration not stated)

>  <unit>
%

>  <cytotoxicity at 10 µM>
16.3

$$$$
>  <molecule>
Cc1cc(C(F)F)nn1CC(=O)NCc1nccn1C

>  <unit>
%

>  <cytotoxicity at 10 µM>
-2.17

$$$$
>  <molecule>
COCc1cc(NCCc2ccc(F)cc2)n2nccc2n1

>  <unit>
%

>  <cytotoxicity at 10 µM>
-12.6

$$$$
>  <molecule>
Cc1cc(C2CCCN2CC(=O)N(CCC#N)c2ccccc2F)on1 (configuration not stated)

>  <unit>
%

>  <cytotoxicity at 10 µM>
-1.5

$$$$
>  <molecule>
Cc1cccc(CN2C[C@@H]3[C@@H](C(=O)NCC(C)C)CCS(=O)(=O)[C@@H]3C2)c1

>  <unit>
%

>  <cytotoxicity at 10 µM>
-2.63

$$$$
>  <molecule>
CCNC(=O)CCC(=O)NC1(c2cccc(C(F)(F)F)c2)CCC1

>  <unit>
%

>  <cytotoxicity at 10 µM>
-39.8

$$$$
>  <molecule>
COc1ccccc1C(=O)N(C)C1CCN(c2ccccn2)CC1

>  <unit>
%

>  <cytotoxicity at 10 µM>
-15.4

$$$$
>  <molecule>
COCCC(C)NC(=O)Nc1ccc(N2CCOC2=O)c(OC)c1 (configuration not stated)

>  <unit>
%

>  <cytotoxicity at 10 µM>
6.48

$$$$
>  <molecule>
CC(C)NC(=O)CC1COC2(CCN(Cc3ccccc3)CC2)C1 (configuration not stated)

>  <unit>
%

>  <cytotoxicity at 10 µM>
6.38

$$$$
>  <molecule>
Cc1cccc(CN2C[C@@H]3CN(C(=O)C4CCOC4)C[C@@H]3C2=O)c1 (some centres not stated)

>  <unit>
%

>  <cytotoxicity at 10 µM>
-114

$$$$
>  <molecule>
COCCN1CC(c2nc(CC3CCN(C)CC3)no2)CCC1=O (configuration not stated)

>  <unit>
%

>  <cytotoxicity at 10 µM>
2.06

$$$$
>  <molecule>
COc1ccc(C(C(=O)O)N2CCC(Cn3cccn3)CC2)c(OC)n1 (configuration not stated)

>  <unit>
%

>  <cytotoxicity at 10 µM>
-9.46

$$$$
>  <molecule>
CC[C@H]1COCCN1C(=O)c1cnc(N2CCN(C)CC2)nc1C

>  <unit>
%

>  <cytotoxicity at 10 µM>
-12.4

$$$$
>  <molecule>
Cc1cccc(CNC(Cn2cncn2)c2ccccc2)c1C (configuration not stated)

>  <unit>
%

>  <cytotoxicity at 10 µM>
-5.23

$$$$
>  <molecule>
N[C@H]1CN(C(=O)c2ccccc2OCc2ccccc2)C[C@@H]1C1CC1

>  <unit>
%

>  <cytotoxicity at 10 µM>
-3.57

$$$$
>  <molecule>
CCN(CC)C(=O)[C@@H]1C[C@H](n2cc(-c3ccccn3)nn2)CN1

>  <unit>
%

>  <cytotoxicity at 10 µM>
-20.6

$$$$
>  <molecule>
Cc1cc(NCCNS(C)(=O)=O)nc2cc3c(cc12)CCC3

>  <unit>
%

>  <cytotoxicity at 10 µM>
2.9

$$$$
>  <molecule>
CC(=O)N1CC[C@@H]2CN(Cc3cccc(Cl)c3)S(=O)(=O)[C@@H]2CC1

>  <unit>
%

>  <cytotoxicity at 10 µM>
-10.8

$$$$
>  <molecule>
COc1ncc(CN2CCOC(C)(C(=O)N3CCOCC3)C2)cn1 (configuration not stated)

>  <unit>
%

>  <cytotoxicity at 10 µM>
-9.49

$$$$
>  <molecule>
Cc1ccc(C(=O)NCCNc2ncccc2C#N)c(=O)[nH]1

>  <unit>
%

>  <cytotoxicity at 10 µM>
-7.44

$$$$
>  <molecule>
Cc1cc(C#N)ccc1S(=O)(=O)N1CCN(C)Cc2ccccc21

>  <unit>
%

>  <cytotoxicity at 10 µM>
5.34

$$$$
>  <molecule>
CC1CCN(Cc2ccccc2CNC(=O)C2CNC(=O)N2)CC1 (configuration not stated)

>  <unit>
%

>  <cytotoxicity at 10 µM>
2.16

$$$$
>  <molecule>
Cc1ccc2nc(C(=O)N3CCCC[C@]4(C)NC(=O)CCC[C@H]34)cn2c1

>  <unit>
%

>  <cytotoxicity at 10 µM>
-9.99

$$$$
